molecules and their reported KIDNEY_L
species on record: Rattus norvegicus; assay: Open TG-GATES - Regimen: Single; format: toxicity, organism-based, Sprague-Dawley; design: regimen Single, gender Male, age 6 weeks; details: in vivo, po, 100 mg/kg, 9 h, tissue Kidney, route gavage, dose level Low
Express the result in g but write the number alone.

Example entries and their recorded answers appear below.
> print(dat)
                                   molecule  quantity  test.result
1                  Clc1ccccc1CN1CCc2sccc2C1  KIDNEY_L          0.9
2          CCc1cc(C(N)=S)ccn1 [ETHIONAMIDE]  KIDNEY_L            1
3  O=C(O)c1cn(C2CC2)c2cc(N3CCNCC3)c(F)cc2c1=O  KIDNEY_L          0.9
4  O=C(O)c1cc(/N=N/c2ccc(S(=O)(=O)Nc3ccccn3)cc2)ccc1O  KIDNEY_L            1

Now, please, on to the next molecule.
Please supply the value of reported KIDNEY_L for the item `C[C@H](CS)C(=O)N1CCC[C@H]1C(=O)O`
1
